- Study target: Diacylglycerol lipase-alpha (Homo sapiens)
- Sequence (Q9Y4D2 whole entry): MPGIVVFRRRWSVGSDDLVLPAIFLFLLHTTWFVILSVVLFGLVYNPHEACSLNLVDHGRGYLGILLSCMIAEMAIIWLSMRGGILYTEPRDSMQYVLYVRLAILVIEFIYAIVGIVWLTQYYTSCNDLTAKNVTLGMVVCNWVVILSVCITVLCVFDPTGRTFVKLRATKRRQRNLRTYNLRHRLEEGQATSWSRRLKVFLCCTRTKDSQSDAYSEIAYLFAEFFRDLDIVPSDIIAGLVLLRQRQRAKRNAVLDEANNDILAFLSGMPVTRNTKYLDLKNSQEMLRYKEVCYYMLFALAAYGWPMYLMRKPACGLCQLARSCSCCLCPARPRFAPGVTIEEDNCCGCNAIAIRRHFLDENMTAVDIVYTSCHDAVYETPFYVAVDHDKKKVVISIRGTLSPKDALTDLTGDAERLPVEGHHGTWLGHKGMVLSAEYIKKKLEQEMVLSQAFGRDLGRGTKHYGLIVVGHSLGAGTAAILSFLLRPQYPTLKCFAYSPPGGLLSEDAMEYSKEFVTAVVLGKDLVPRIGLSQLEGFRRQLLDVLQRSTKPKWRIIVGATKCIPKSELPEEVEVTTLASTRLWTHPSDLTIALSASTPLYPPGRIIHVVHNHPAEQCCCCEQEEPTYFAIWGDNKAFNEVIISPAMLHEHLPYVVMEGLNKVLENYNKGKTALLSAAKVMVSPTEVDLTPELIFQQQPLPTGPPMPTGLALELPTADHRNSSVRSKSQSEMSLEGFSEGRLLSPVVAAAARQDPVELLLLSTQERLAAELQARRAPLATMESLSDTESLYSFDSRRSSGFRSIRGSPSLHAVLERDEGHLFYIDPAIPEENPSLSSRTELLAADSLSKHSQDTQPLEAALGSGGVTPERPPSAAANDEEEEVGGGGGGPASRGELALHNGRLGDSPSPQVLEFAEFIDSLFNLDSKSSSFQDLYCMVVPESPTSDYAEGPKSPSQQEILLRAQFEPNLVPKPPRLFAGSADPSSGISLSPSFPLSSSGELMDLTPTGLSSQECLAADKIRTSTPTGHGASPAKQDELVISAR
- Experiment summary: In Vitro Inhibition of DAGL: Briefly, membrane proteome (1 mg/ml, 20 μL) was prepared from HEK293T cells (transiently transfected with hDAGLα-FLAG or hDAGLα-S472A-FLAG, hDAGLβ-FLAG or hDAGLβ-S443A-FLAG) as described in Example 16. The proteome was incubated at room temperature with vehicle (DMSO) or compound in 0.5 μL DMSO for 30 min. The membrane proteome sample was subsequently treated for 30 min with HT-01 probe (1 μM) or FP-Rh probe (1 μM). The reactions were quenched with 10 μL 3× Laemmli sample buffer (final concentrations: 60 mM Tris-Cl pH 6.8, 2% (w/v) SDS, 10% (v/v) glycerol, 5% (v/v) (3-mercaptoethanol, 0.01% (v/v) bromophenol blue). The samples were directly loaded and resolved on SDS page gel (10% acrylamide). The gels were scanned using a ChemiDoc MP system (Cy3 settings, 605/50 filter).The resolved proteins were transferred from the gels to a polyvinyldifluoride membrane for Western Blotting using a Trans-Blot® Turbo (BioRad). FLAG-tagged enzymes were stained using rabbit anti-FLAG as primary antibody, and goat-anti-rabbit HRP as secondary antibody. The blot was developed in the dark using a 10 mL luminal solution, 100 μL ECL enhancer and 3 μL H2O2. Chemiluminescence was visualized using a ChemiDoc XRS (BioRad).The percentage of DAGL activity remaining in the assayed samples was determined by measuring the integrated optical intensity of the fluorescent protein bands of the Western Blot using image lab 4.1. The relative intensity was compared to the vehicle (DMSO) treated proteins, which were set to 100%. IC50 values were determined by plotting a log(inhibitor) vs. normalized response (Variable slope) dose-response curve generated using Prism software (GraphPad).

[
  {
    "Smiles repr": "CCC(CC)CN(CCc1ccccc1)C(=O)n1cc(-c2ccc(OC(F)(F)F)cc2)nn1",
    "IC50": "< 400 nM"
  }
]

Where do these numbers come from? They come from ChEMBL document CHEMBL5727581.
